System: Escherichia coli TOP10;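 also: peptides expressed intracellularly from a pBAD plasmid library in pooled LB shake-flask culture, induced with 0.3% L-arabinose, DNA abundance read by NGS, three biological replicates, DESeq2 with apeglm shrinkage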
Assay: shrunken log2 fold change of peptide-encoding DNA abundance (4.5 h post-induction vs induction); higher = less antimicrobial activity (less host growth inhibition)
Conditions: time post-induction: 4.5 h; library: site-saturation at positions 5, 18, 19, 20
Observable: shrunken log2 fold change

# Seq Text, Value Measured
measured = [
    ("RRIRSRPPRLPRPRPRPMLAPRP", 0.244),
    ("RRIRQRPPRLPRPRPRPPRCPRP", 0.689),
    ("RRIRDRPPRLPRPRPRPRFPPRP", 1.75),
    ("RRIRPRPPRLPRPRPRPTLFPRP", 0.2),
    ("RRIRIRPPRLPRPRPRPSFFPRP", -0.654),
    ("RRIRKRPPRLPRPRPRPWWYPRP", -0.127),
    ("RRIRFRPPRLPRPRPRPPDFPRP", -0.195),
    ("RRIRKRPPRLPRPRPRPMYRPRP", 0.0629),
    ("RRIRKRPPRLPRPRPRPTKHPRP", 0.195),
    ("RRIRMRPPRLPRPRPRPRWEPRP", 0.814),
    ("RRIRRRPPRLPRPRPRPRCYPRP", 0.00798),
    ("RRIRCRPPRLPRPRPRPIYFPRP", -0.131),
    ("RRIRNRPPRLPRPRPRPAYRPRP", 0.105),
    ("RRIRKRPPRLPRPRPRPNLRPRP", 0.211),
    ("RRIRWRPPRLPRPRPRPASIPRP", -0.336),
    ("RRIRCRPPRLPRPRPRPTHDPRP", 0.302),
    ("RRIRIRPPRLPRPRPRPFCCPRP", -0.205),
    ("RRIRPRPPRLPRPRPRPINDPRP", -0.178),
    ("RRIRWRPPRLPRPRPRPSHDPRP", 0.023),
    ("RRIRGRPPRLPRPRPRPSEQPRP", 0.301),
    ("RRIRLRPPRLPRPRPRPIQYPRP", 0.147),
    ("RRIRPRPPRLPRPRPRPPRQPRP", 0.334),
    ("RRIRWRPPRLPRPRPRPFVWPRP", 0.128),
    ("RRIRTRPPRLPRPRPRPFYAPRP", -0.301),
]
